Listing of recorded Kd by entry.
TARGET UNDER TEST: T1, human GARP-proTGFβ1 complex (human, UniProt P01137 30-390; Q14392 20-627)
T1 construct: also called hGARP-proTGFβ1; hGARP
T1 sequence (P01137 30-390, chain 1 of 2): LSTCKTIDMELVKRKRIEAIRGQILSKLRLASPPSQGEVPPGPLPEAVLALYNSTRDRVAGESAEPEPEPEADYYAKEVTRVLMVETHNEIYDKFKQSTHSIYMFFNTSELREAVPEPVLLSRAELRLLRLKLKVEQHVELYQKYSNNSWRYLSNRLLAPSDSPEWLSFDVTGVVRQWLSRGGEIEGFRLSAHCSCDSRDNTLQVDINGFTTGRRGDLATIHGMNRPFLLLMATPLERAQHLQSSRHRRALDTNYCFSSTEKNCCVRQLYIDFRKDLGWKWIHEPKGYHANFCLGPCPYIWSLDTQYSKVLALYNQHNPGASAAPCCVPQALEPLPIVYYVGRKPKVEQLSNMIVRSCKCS
T1 sequence (Q14392 20-627, chain 2 of 2): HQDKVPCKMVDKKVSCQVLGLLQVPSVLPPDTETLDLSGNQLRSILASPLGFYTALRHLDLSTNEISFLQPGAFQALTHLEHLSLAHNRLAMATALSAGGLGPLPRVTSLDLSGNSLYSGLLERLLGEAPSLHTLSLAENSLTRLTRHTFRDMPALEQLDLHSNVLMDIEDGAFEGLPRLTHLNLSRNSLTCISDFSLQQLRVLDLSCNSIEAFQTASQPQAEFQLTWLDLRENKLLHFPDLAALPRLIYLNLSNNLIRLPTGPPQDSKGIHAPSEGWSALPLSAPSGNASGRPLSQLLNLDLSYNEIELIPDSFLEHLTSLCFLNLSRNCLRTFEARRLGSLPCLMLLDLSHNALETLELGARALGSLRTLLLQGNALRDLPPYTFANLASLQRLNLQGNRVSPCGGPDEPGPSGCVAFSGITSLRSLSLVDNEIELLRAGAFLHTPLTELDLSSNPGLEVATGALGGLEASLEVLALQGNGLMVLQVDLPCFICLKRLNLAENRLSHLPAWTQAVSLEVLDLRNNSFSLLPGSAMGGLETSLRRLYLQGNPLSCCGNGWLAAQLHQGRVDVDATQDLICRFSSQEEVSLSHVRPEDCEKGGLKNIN
TEST NAME: MSD-SET, hIgG4
Experimental: MSD-SET assays were performed to measure affinities of the antibodies at equilibrium. Briefly, each test antibody was diluted 3-5 fold and samples were mixed with biotinylated antigen in a 48-well dish. The SET samples were equilibrated for 20-24 hours at room temperature. […] 2× Read Buffer was added, and signals from the labeled bound complexes were read with the use of QuickPlex™ SQ 120 instrument.
OUTCOME MEASURE: Kd (pM)

[[record]]
binder = "Ab26 (antibody, IgG4, V domains shown) VH: EVQLVESGGGLVQPGGSLRLSCAASGFTFSSFSMDWVRQAPGKGLEWVSYISPDASTIYYADSVKGRFTISRDNAKNTLYLQMNSLRAEDTAVYYCARGVLDYGDMLDPWGQGTLVTVSS VL: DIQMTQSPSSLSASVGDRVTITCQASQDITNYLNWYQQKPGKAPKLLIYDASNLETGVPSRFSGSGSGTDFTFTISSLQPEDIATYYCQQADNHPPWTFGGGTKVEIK"
outcome_measure = "Kd"
measured_value = 14

[[record]]
binder = "Ab6 (antibody, V domains shown) VH: EVQLVESGGGLVQPGGSLRLSCTASGFTFSSFSMDWVRQAPGKGLEWVSYISPSADTIYYADSVKGRFTISRDNAKNTLYLQMNSLRAEDTAVYYCARGVLDYGDMLMPWGQGTLVTVSS VL: DIQMTQSPSSLSASVGDRVTITCQASQDITNYLNWYQQKPGKAPKLLIYDASNLETGVPSRFSGSGSGTDFTFTISSLQPEDIATYYCQQADNHPPWTFGGGTKVEIKR"
outcome_measure = "Kd"
measured_value = 27

[[record]]
binder = "Ab12 (antibody, IgG4, V domains shown) VH: QVQLVESGGGVVQPGRSLRLSCAASGFTFSDYAMVWVRQAPGKGLEWVSAISGSGFTTYYADSVKGRFTISRDNSKNTLYLQMNSLRAEDTAVYYCARVSSGHWDFDYWGQGTLVTVSS VL: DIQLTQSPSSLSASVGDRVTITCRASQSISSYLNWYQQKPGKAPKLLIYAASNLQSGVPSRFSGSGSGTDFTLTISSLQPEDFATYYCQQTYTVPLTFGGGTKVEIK"
outcome_measure = "Kd"
measured_value = 1700


Sourced from patent US20250215072A1
